- Tested on: Mycobacterium tuberculosis variant bovis BCG
- method summary: Antimycobacterial activity against Mycobacterium bovis BCG ATCC 35734 after 5 days in absence of glycerol by broth dilution method
- Format: functional
- reported conditions: ATCC 35734, 120 h

# chemical string, MIC50, µM
records = [
    ("CCCCCCCCn1cc(CN2CCC3(CC2)SCCCS3)c2ccc(OC)cc21", 0.43),
    ("CCCCCCCCn1cc(CN2CCC3(CC2)OCCO3)c2ccc(OC)cc21", 1.6),
    ("CCCCCCCCn1cc(CN2CCC3(CC2)OCCCO3)c2ccc(OC)cc21", 0.35),
    ("CCCCCCCCn1cc(CN2CCC3(CC2)OCCCS3)c2ccc(OC)cc21", 0.41),
    ("CCCCCCCCn1cc(CN2CCC3(CC2)OCCS3)c2ccc(OC)cc21", 0.37),
    ("CCCCCCCCn1cc(CN2CCC3(CC2)SCCS3)c2ccc(OC)cc21", 0.27),
]
